B1: glmS ribozyme (parent)
chain: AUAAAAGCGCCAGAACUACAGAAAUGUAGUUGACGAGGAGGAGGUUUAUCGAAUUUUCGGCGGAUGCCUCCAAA

Variants of: B1
assayProcedure: self-cleavage kobs at 160 uM GlcN6P; higher = faster cleavage; RNA array
conditionLabel: with glucosamine-6-phosphate
This sample holds only a part of the variants without activity.
Below, each of the variants is paired with its reported self-cleavage kobs at 160 uM GlcN6P value.
# value in s⁻¹; strip the unit string

Examples with their reported self-cleavage kobs at 160 uM GlcN6P follow.
1) AUAAAAGCGCCAGGACUACAGAAAUGUAGUUGACGAGGAGGAGGUUUAUCGAAUCUUCGGCGGAUGCCUCCAAA [A14G U55C] | 0.00449
2) AUAAAAGCGCCAGAACUACAGAAAUGUAGUUGACGAGGAGGAGGUUUAUCGAAUUUACGGCGGAUGCCGCCAAA [U57A U69G] | 3.35e-05
3) AUAAAAGCGCCAGAUCUACAGAAAUGUAGUUGACGAGGAGGAGGUUUAUCGAUUUUUCGGCGGAUGCCUCCAAA [A15U A53U] | 0.000245
4) AUAAAAGCGCCAGAACUACAGAAAUGUAGUUGACGAGGAGGUGGUUUAUCGAAUGUUCGGCGGAUGCCUCCAAA [A42U U55G] | 5.02e-05
5) AUAAAAGCGCCAGAACUACAGAAAUGUAGUUGACGAGGAGGAGGUUUAUCGAAUUUUCGGCGGAUUCCUCUAAA [G66U C71U] | 0.000107
6) AUAAAAGCGCCAGCACUACAGAAAUGUAGUUGACGAGGAGGAGGUGUAUCGAAUUUUCGGCGGAUGCCUCCAAA [A14C U46G] | 8.78e-05
7) AUAAAAGCGCCAGUACUACAGAAAUGUAGUUGACGAGGAGGAGGUUUAUCGAAUUUUCGGCGGAUGCCUCGAAA [A14U C71G] | 5.71e-05
8) AUAAAAGCGCCAGAACUACAGAAAUGUAGUAGACGAGGGGGAGGUUUAUCGAAUUUUCGGCGGAUGCCUCCAAA [U31A A39G] | 0.00202

Input: For AUAAAAGCGCCAGAACUACAGAAAUGUAGUUGACGAGGAUGAGGUUUAUCGAAUUUUCGGCGGAUGCCUUCAAA [G40U C70U] , what is its reported self-cleavage kobs at 160 uM GlcN6P?
Output: 0.000139

Input: For AUAAAAGCGCCAGAACUACAGAAAUGUAGUUGACGAGGAGGAGGUUUAUCGAAUUUUCGGCGGAUGUCUUCAAA [C67U C70U] , what is its reported self-cleavage kobs at 160 uM GlcN6P?
Output: 4.68e-05

Input: For AUAAAAGCGCCAGAACUACAGAAAUGUAGUUGACGAGGAGGAGGUUGAUCGAAUUUUCGGCGGAUUCCUCCAAA [U47G G66U] , what is its reported self-cleavage kobs at 160 uM GlcN6P?
Output: 3.12e-05

Input: For AUAAAAGCGCCAGAACUACAGAAAUGUAGUUGACGAGGAGGAGGUUUAUCGAGUUUUCGGCGGAUGCCUGCAAA [A53G C70G] , what is its reported self-cleavage kobs at 160 uM GlcN6P?
Output: 0.000309

Input: For AUAAAAGCGCCAGAACUACAGAAAUGUAGUUGACGAGGAGGAGGUUAAUCGACUUUUCGGCGGAUGCCUCCAAA [U47A A53C] , what is its reported self-cleavage kobs at 160 uM GlcN6P?
Output: 0.000506

Sourced from the supplement of paper PMC7125110
